- MEASURED_ON: human recombinant PDE10A (Homo sapiens, UniProt Q9Y233)
- Construct: made in house; host or cells: SF21 insect cells (baculovirus)
- Sequence (Q9Y233 1-779 isoform Q9Y233-1): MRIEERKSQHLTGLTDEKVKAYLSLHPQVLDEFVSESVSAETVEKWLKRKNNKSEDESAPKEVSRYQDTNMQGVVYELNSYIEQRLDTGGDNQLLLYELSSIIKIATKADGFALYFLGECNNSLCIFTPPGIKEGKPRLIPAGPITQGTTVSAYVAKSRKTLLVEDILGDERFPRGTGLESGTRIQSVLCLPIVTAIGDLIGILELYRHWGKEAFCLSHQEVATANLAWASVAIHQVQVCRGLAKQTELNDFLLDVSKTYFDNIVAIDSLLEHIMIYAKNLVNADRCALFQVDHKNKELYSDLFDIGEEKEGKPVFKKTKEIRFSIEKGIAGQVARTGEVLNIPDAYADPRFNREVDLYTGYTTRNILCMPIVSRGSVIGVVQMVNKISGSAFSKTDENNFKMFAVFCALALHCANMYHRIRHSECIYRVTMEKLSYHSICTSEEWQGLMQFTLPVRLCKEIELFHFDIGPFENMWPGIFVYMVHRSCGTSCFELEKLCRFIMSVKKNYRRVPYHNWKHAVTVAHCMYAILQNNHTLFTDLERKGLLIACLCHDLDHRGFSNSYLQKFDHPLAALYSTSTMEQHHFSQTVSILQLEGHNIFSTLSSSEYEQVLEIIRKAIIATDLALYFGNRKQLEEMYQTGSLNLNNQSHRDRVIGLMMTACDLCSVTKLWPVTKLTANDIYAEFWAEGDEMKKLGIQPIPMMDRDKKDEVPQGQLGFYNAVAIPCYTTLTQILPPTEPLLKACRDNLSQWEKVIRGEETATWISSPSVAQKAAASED
- ASSAY_COMMENT: Inhibition of PDE10, human recombinant PDE10A ([3H]-cAMP SPA)
- Assay type: biochemical
- REPORTED_CONDITIONS: Table 9; read-out: hPDE10 IC50
pIC50: −log10 of the molar value.
REPORTED_METRIC: pIC50

Look over these answered cases.
In [3]: df
Out[3]:
                                   compound  data_value
0  COc1ccc2nc(C)c3c(C)nc(-c4ccc(F)c(C(N)=O)c4)n3c2n1 [Example 130]      > 8.00
1  Cc1nc(-c2cc(C(N)=O)ccc2F)n2c1c(C)nc1ccc(OCC3CC3)nc12 [Example 151]      > 8.00
2  COc1ccc2nc(C)c3c(C)nc(-c4cccc(N5CCOCC5)c4)n3c2n1 [Example 188]      < 7.00
3  COc1ccc2nc(C)c3c(C)nc(CC#N)n3c2n1 [Example 133]      < 7.00

Give pIC50 for each of the items listed below.
1. Cc1nc(-c2ccc(F)c(C(N)=O)c2)n2c1c(C)nc1ccc(OCC3CC3)nc12 [Example 144]
2. COc1ccc2nc(C#N)c3c(C)nc(-c4ccc(F)nc4C)n3c2n1 [Example 172]

output:
1: > 8.00; 2: < 7.00

---

Would you mind telling me the reported pIC50 of each entry?
- MEASURED_ON: PDE10 from pig striatum (Sus scrofa, UniProt A0A287B941)
- ASSAY_COMMENT: Inhibition of PDE10 from pig striatum ([3H]-cAMP SPA)
- Type: biochemical
- REPORTED_CONDITIONS: Table 8; read-out: PDE10 pig IC50
pIC50: −log10 of the molar value.

# example entries with known answers
>>> print(df.to_string())
                              record_smiles  reported_metric    data_value
0  COc1ccc2nc(C)c3c(C)nc(-c4cccc(F)c4C)n3c2n1            pIC50        > 8.00
1   COc1ccc2nc(N)c3c(C)nc(CCC(F)(F)F)n3c2n1            pIC50  7.00 to 8.00
2     COc1ccc2nc(C)c3c(C)nc(-c4cccs4)n3c2n1            pIC50  7.00 to 8.00
3     COc1ccc2nc(C)c3c(C)nc(-c4ccco4)n3c2n1            pIC50  7.00 to 8.00

Hi there! I need pIC50 for each item below, if you can.
1. COc1ccc2nc(C)c3c(C)nc(-c4cccc(Cl)c4C)n3c2n1
2. COc1ccc2nc(C)c3c(C)nc(-c4cccc(Cl)c4)n3c2n1
3. COc1ccc2nc(C)c3c(C)nc(-c4cccc(C(N)=O)c4)n3c2n1
4. COc1ccc2nc(C)c3c(C)nc(-c4ccc(Cl)s4)n3c2n1
5. COc1ccc2nc(C)c3c(C)nc(-c4ccc(OC(F)(F)F)cc4)n3c2n1
6. COc1ccc2nc(C)c3c(C)nc(-c4cccc(C(=O)N5CCCCC5)c4)n3c2n1
7. COc1cccc(C#Cc2nc(C)c3c(C)nc4ccc(OC)nc4n23)c1
8. COc1ccc2nc(C)c3c(C)nc(-c4ccc(Cl)cc4OC)n3c2n1

output:
1. > 8.00
2. > 8.00
3. > 8.00
4. 7.00 to 8.00
5. 7.00 to 8.00
6. < 7.00
7. < 7.00
8. 7.00 to 8.00

Each of the following entries comes with a recorded value; kindly state pIC50 for each.
1. CONC(=O)c1cccc(-c2nc(C)c3c(C)nc4ccc(OC)nc4n23)c1
2. COc1ccc2nc(C)c3c(C)nc(C#Cc4ccccc4OC)n3c2n1
3. COc1ccc2nc(C)c3c(C)nc(-c4ccc(C#N)cc4)n3c2n1
4. COc1ccc2nc(C)c3c(C)nc(-c4cccc(C#N)c4)n3c2n1
5. COc1cccc(-c2nc(C)c3c(C)nc4ccc(OC)nc4n23)c1

output:
1: 7.00 to 8.00; 2: < 7.00; 3: 7.00 to 8.00; 4: 7.00 to 8.00; 5: > 8.00

---

Give measured IC50 for each item. Keep answers brief.
- MEASURED_ON: human recombinant PDE10A (Homo sapiens, UniProt Q9Y233)
- Construct: made in house; host or cells: SF21 insect cells (baculovirus)
- ASSAY_COMMENT: Inhibition of PDE10, human recombinant PDE10A ([3H]-cAMP SPA)
- Format: biochemical
- REPORTED_CONDITIONS: Table 9; read-out: hPDE10 IC50
- Procedure: The gene was than inserted into a baculovirus vector, ligated with the baculovirus DNA. The enzyme-protein was expressed in SF21-cells. The enzyme was isolated from these cells by harvesting the cells by a centrifugation at 200 g to collect the cells. […] PDE10 activity was determined in a one step procedure in microtiterplates. […] One hour later the mixture was measured in a liquid scintillation counter for microtiterplates (Microbeta Trilux). […]

>>> print(df.to_string())
                              record_smiles    data_value
0  Cc1cc(F)ccc1-c1nc(C)c2c(C)nc3ccc(OCC4CC4)nc3n12  10 to 100 nM
1  Cc1ccccc1-c1nc(C)c2c(C)nc3ccc(OCC4CC4)nc3n12       < 10 nM
2  Cc1nc(-c2ccc(F)cc2Cl)n2c1c(C)nc1ccc(OCC3CC3)nc12       < 10 nM
3  Cc1ccccc1-c1nc(C)c2c(C)nc3ccc(OCC(F)(F)F)nc3n12  10 to 100 nM
4  Cc1ccncc1-c1nc(C)c2c(C)nc3ccc(OCC4CC4)nc3n12  10 to 100 nM

Each of the following entries comes with a recorded value; kindly state IC50 for each.
1. Cc1nc(-c2ccc(Cl)cc2C(F)(F)F)n2c1c(C)nc1ccc(OCC3CC3)nc12
2. COc1ccc2nc(C)c3c(C)nc(-c4ccc5[nH]ccc5c4)n3c2n1
3. COc1ccc2nc(C)c3c(C)nc(-c4cc[nH]c4)n3c2n1
4. Cc1ccc(Cl)cc1-c1nc(C)c2c(C)nc3ccc(OCC4CC4)nc3n12
5. Cc1ccccc1-c1nc(C)c2c(C)nc3ccc(OCc4ccncc4)nc3n12
6. COc1ccc2nc(C#N)c3c(C)nc(-c4ccc(F)c(C(N)=O)c4)n3c2n1

output:
1: 10 to 100 nM; 2: < 10 nM; 3: 10 to 100 nM; 4: 10 to 100 nM; 5: < 10 nM; 6: < 10 nM

---

- MEASURED_ON: human recombinant PDE10A (Homo sapiens)
- Construct: made in house; host or cells: SF21 insect cells (baculovirus)
- ASSAY_COMMENT: Inhibition of PDE10, human recombinant PDE10A ([3H]-cAMP SPA)
- Type: biochemical
- REPORTED_CONDITIONS: Table 9; read-out: hPDE10 IC50
- Experimental: The gene was than inserted into a baculovirus vector, ligated with the baculovirus DNA. The enzyme-protein was expressed in SF21-cells. The enzyme was isolated from these cells by harvesting the cells by a centrifugation at 200 g to collect the cells. […] PDE10 activity was determined in a one step procedure in microtiterplates. […] One hour later the mixture was measured in a liquid scintillation counter for microtiterplates (Microbeta Trilux). […]
REPORTED_METRIC: IC50

>>> print(df.to_string())
                              record_smiles                              measured_on  reported_metric      data_value
0  COc1cncc(-c2nc(C)c3c(C)nc4ccc(OC)nc4n23)c1  human recombinant PDE10A (Homo sapiens)             IC50       < 0.01 µM
1   COc1ccc2nc(C)c3c(C)nc(-c4cccnc4F)n3c2n1  human recombinant PDE10A (Homo sapiens)             IC50       < 0.01 µM
2  COc1ccc2nc(C#N)c3c(C)nc(-c4cccc(C(N)=O)c4)n3c2n1  human recombinant PDE10A (Homo sapiens)             IC50  0.01 to 0.1 µM
3  Cc1nc(-c2cccc(C(N)=O)c2)n2c1c(C)nc1ccc(OCC3CC3)nc12  human recombinant PDE10A (Homo sapiens)             IC50       < 0.01 µM
4  CCCn1cc(-c2nc(C)c3c(C)nc4ccc(OC)nc4n23)cn1  human recombinant PDE10A (Homo sapiens)             IC50        > 0.1 µM

Parameters: items (list). Returns: IC50 for each item.
1. COc1ccc2nc(C)c3c(C)nc(-c4cnn(C)c4)n3c2n1
2. COc1ccc2nc(C#N)c3c(C)nc(-c4cc(C(N)=O)ccc4F)n3c2n1
3. Cc1nc(-c2cccc(S(N)(=O)=O)c2)n2c1c(C)nc1ccc(OCC3CC3)nc12

output:
0.01 to 0.1 µM
< 0.01 µM
> 0.1 µM

Report IC50 for each item below.
1. COc1ccc2nc(C#N)c3c(C)nc(-c4cnccc4C)n3c2n1
2. COc1ccc2nc(C#N)c3c(C)nc(-c4cccnc4)n3c2n1
3. COc1ccc2nc(C)c3c(C)nc(-c4cnn(CCN5CCOCC5)c4)n3c2n1

output:
["> 0.1 µM", "0.01 to 0.1 µM", "> 0.1 µM"]

# batch: return IC50 for each of the 2 molecules below
1. Cc1ccccc1-c1nc(C)c2c(C)nc3ccc(=O)[nH]c3n12
2. Cc1nc(-c2ccc(C(N)=O)cc2)n2c1c(C)nc1ccc(OCC3CC3)nc12

output:
["0.01 to 0.1 µM", "< 0.01 µM"]
